test: Mouse oral pharmacokinetics; format: in vivo, BALB/c mice; details: BALB/c, mouse, plasma; mice, single oral dose 50 mg/kg
ATTRIBUTE_MEASURED: Tmax (min)

1) CN1C(=O)Cc2ccc(F)c(CCNCCC3CN(c4ccc5c(n4)NC(=O)CO5)C(=O)O3)c21 (single isomer, unassigned) : 30

###

# reported MIC; entries follow
system: P. aurigenosa ATCC 27853; test: Minimum Inhibitory Concentration (MIC) in LB media; format: cell-based, Pseudomonas aurigenosa; settings: Pseudomonas, ATCC27853, LB Media
ATTRIBUTE_MEASURED: MIC

1. CN1C(=O)Cc2ccc(F)c(CNCCCC3CN(c4ccc5c(n4)NC(=O)CO5)C(=O)O3)c21 (racemic) [Example 6] : 1 µg/mL
2. CN1C(=O)Cc2ccc(F)c(CNCCCC3CN(c4ccc5c(n4)NC(=O)CO5)C(=O)O3)c21 (single isomer, unassigned) [Example 9] : 2 µg/mL
3. CN1C(=O)Cc2ccc(F)c(CCNCCC3CN(c4ccc5c(n4)NC(=O)CO5)C(=O)O3)c21 (single isomer, unassigned) [Example 13] : 0.5 µg/mL
4. CCN1C(=O)Cc2ccc(F)c(CNCCCC3CN(c4ccc5c(n4)NC(=O)CO5)C(=O)O3)c21 (stereo not shown) : 2.5 µg/mL
5. CCN1C(=O)Cc2ccc(F)c(CNCCC3CN(c4ccc5c(n4)NC(=O)CO5)C(=O)O3)c21 (stereo not shown) : 20 µg/mL
6. Cc1ncc(N2CC(CCNCc3c(F)ccc4c3N(C)C(=O)C4)OC2=O)cc1C#N (stereo not shown) : > 80 µg/mL
7. O=C(O)c1cn(C2CC2)c2cc(N3CCNCC3)c(F)cc2c1=O [Ciprofloxacin, reference compound] : 0.1 µg/mL
8. CN1C(=O)Cc2ccc(F)c(CNCCC3CN(c4ccc5c(c4)NC(=O)CO5)C(=O)O3)c21 (stereo not shown) : 20 µg/mL
9. CN1C(=O)Cc2cccc(CNCCC3CN(c4ccc5c(n4)NC(=O)CO5)C(=O)O3)c21 (stereo not shown) : 40 µg/mL
10. CN1C(=O)Cc2ccc(F)c(C(O)CNCCC3CN(c4ccc5c(n4)NC(=O)CO5)C(=O)O3)c21 (stereo not shown) : 2 µg/mL
11. CN1C(=O)C(C)(C)c2ccc(F)c(CNCCC3CN(c4ccc5c(n4)NC(=O)CO5)C(=O)O3)c21 (stereo not shown) : > 80 µg/mL
12. CN1C(=O)Cc2ccc(F)c(CNCCC3CN(c4ccc5c(n4)NC(=O)CO5)C(=O)O3)c21 (stereo not shown) : 10 µg/mL
13. CN1C(=O)Cc2ncc(F)c(CNCCCC3CN(c4ccc5c(n4)NC(=O)CO5)C(=O)O3)c21 (stereo not shown) : > 16 µg/mL
14. CN1C(=O)Cc2ccc(F)c(CNCCCC3CN(c4ccc5c(c4)NC(=O)CO5)C(=O)O3)c21 (stereo not shown) : 2 µg/mL
15. CN1C(=O)Cc2ccc(F)c(CCNCCC3CN(c4ccc5c(n4)NC(=O)CO5)C(=O)O3)c21 (racemic) [Example 11] : 0.5 µg/mL
16. Cn1c(=O)oc2ccc(F)c(CCNCCC3CN(c4ccc5c(n4)NC(=O)CO5)C(=O)O3)c21 (stereo not shown) : 4 µg/mL
